# Assayed system: T1, human LAG-3 (full length, on the cell surface) (human, UniProt P18627 23-525)
# T1 construct: Full-length human LAG-3 expressed on cells; also called HEK293-hLAG-3; HEK293 cells transfected with LAG-3 gene
# T1 sequence: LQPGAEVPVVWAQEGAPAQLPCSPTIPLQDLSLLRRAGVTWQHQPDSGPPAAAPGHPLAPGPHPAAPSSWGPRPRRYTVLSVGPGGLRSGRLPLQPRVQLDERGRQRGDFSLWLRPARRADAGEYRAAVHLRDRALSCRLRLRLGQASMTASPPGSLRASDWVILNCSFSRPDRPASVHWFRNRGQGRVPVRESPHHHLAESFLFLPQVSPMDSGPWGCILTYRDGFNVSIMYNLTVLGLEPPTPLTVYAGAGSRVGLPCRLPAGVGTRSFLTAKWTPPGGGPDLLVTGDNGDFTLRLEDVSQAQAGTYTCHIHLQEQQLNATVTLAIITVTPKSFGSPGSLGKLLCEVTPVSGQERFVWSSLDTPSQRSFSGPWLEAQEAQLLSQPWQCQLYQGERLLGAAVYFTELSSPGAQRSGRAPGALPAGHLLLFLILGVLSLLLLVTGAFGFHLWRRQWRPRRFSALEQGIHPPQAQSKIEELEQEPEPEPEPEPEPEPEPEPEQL
# Assay info: FACS, HEK293-hLAG-3; 40.000 nM
Parameter measured: Mean fluorescence intensity (MFI)
Answer with a number only, understood to be in MFI.

May I ask what Mean fluorescence intensity has been recorded for 105F1E10 (mouse antibody purified from hybridoma) (antibody, V domains shown, also called mAb009-105F1E10) VH: EVQLQQSGPELVKPGASVKMSCRASGYTFTDFKMHWMKQSHGKSLEWIGYIAPNNGGTAYNQKFRGKATLTVNESSNTAYMELRSLTSEDSAVYYCVDWDDVDYWGQGTTLTVSS VL: DIKMTQSPSSMYASLGERVTITCKASQDINSYLSWFQQKSGKSPKTLIYRANRLVDGVPSRFSGSGSGQDYSLTISSLEYEDMGIYYCLQYVEFPLTFGAGTKLELK ?
315
